Numbers sourced from ChEMBL document CHEMBL1201862.

Tested on: OVCAR-8
Test method notes: NCI tumour cell line growth inhibition, 48 h
Active and inactive are the calls of the source. No stated cut-off is given here; in the data, active = GI50 up to about 1.1 µM and inactive = higher.
Just give me one of these, please: yes = active, no = inactive

Could you please tell me the result logged for "O=c1[nH]c2c(Nc3c4ccccc4nc4ccccc34)c([N+](=O)[O-])c(Nc3c4ccccc4nc4ccccc34)c([N+](=O)[O-])c2[nH]1" in this assay?
no

Just curious, what result did COC(=O)c1cc(C(=CCC[C@H]2CC[C@@]3(C)C(CCC4C3CC[C@@]3(C)C4CC[C@@H]3C(C)CCCC(C)C)C2)c2cc(Cl)c(OC(=O)c3ccccc3)c(C(=O)OC)c2)cc(Cl)c1OC(=O)c1ccccc1 (stereo not given in full) get here?
no

For this compound, state the assay outcome: C=C1C(=O)C[C@@]23CCC[C@@]12CC(OCOC)C3 (stereo not given in full)
no

Please state the recorded outcome for this compound: O=[N+]([O-])c1ccc(Cl)c(C2SCc3nc4ccccc4n32)c1 (stereo not given)
no

Called result for "O=C(/C=C/c1ccccc1)c1cc(C(=O)/C=C/c2ccccc2)c(O)cc1O"
no

Identify the outcome logged in this assay for the compound shown: "O=C1OC(c2ccc(Cl)cc2)=N/C1=C\c1ccccc1"
no

Each compound tested received a call. Report the one for "CS(=O)(=O)c1ccc(-c2cc(-c3ccc(S(C)(=O)=O)cc3)[n+](-c3cc(-c4ccccc4)c([O-])c(-c4ccccc4)c3)c(-c3ccc(S(C)(=O)=O)cc3)c2)cc1" .
no

Identify the outcome logged in this assay for the compound shown: Cc1nc2cccc(F)c2c(=O)n1C1CCCCNC1=O (stereo not given)
no

Called result for CCOC(=O)c1c(-c2ccc(OC)cc2)c(C#N)c(=S)n(C2OC(CO)C(O)C(O)C2O)c1C (stereo not given)
no

What outcome does the record of this test show for "NC(=O)N=C(N(Cc1ccccc1)Cc1ccccc1)N(Cc1ccccc1)Cc1ccccc1" ?
no

Please share the test call associated with "CN(O)C(=O)CCCC(=O)NCC(C)(C)CNC(=O)CCCC(=O)N(C)O" .
no

Query: recorded result category for "COc1ccccc1-n1c(=O)n(C)c(=O)n1C(C)(C)C" in this test
no

For this compound, state the assay outcome: CSC1=NC(C(N)=O)C(N)N1C (stereo not given)
no

Could you check what this test reported for "OC[C@H]1O[C@@H]2O[C@@](COCc3ccccc3)([C@H](OCc3ccccc3)[C@H]2O)[C@@H]1OCc1ccccc1" ?
no

Assay outcome for "CO/N=C\c1ccc2c(c1)Sc1ccccc1O2" : what was it?
no

Per the records of this test, what outcome belongs to "O=c1ccn([C@H]2CSC[C@@H](CO)C2)c(=O)[nH]1" ?
no

Please let me know the test result on file for "O=C(CC(O)(C(F)(F)F)C(F)(F)F)c1cc(CC(=O)C(O)(C(F)(F)F)C(F)(F)F)cc(CC(=O)C(O)(C(F)(F)F)C(F)(F)F)c1" .
no

Record lookup: outcome of this test for "COc1ccc(/N=N/c2ccc3oc(=O)c(C(=O)Nc4ccccc4)cc3c2)cc1" ?
no

Would you mind telling me which call this test gave "Cc1cc2c(cc1C)[n+]([O-])c(N1CCN(c3ccc([N+](=O)[O-])cc3)CC1)c(C#N)[n+]2[O-]" ?
no

# lookup: test call for CC(C(=O)N1c2ccccc2Sc2ccccc21)N1c2ccccc2Sc2ccccc21 (stereo not given)
no

Which outcome did this test record for the compound "COC(=O)/C(=C/c1ccc(OC)cc1)C(C(=O)O)=C1CCCCC1" ?
no

Could you kindly confirm the outcome this assay logged for "N[C@@H](CCC(=O)NCP(=O)(O)O)C(=O)O" ?
no

Recorded test call requested for "CC1=CC(=O)[C@@H](O)[C@]2(C)[C@H]3[C@@]4(O)OC[C@]35[C@H]([C@@H](C)[C@H]4O)[C@@H](OC(=O)C(C)(C)CO)C(=O)O[C@@H]5C[C@@H]12"
yes

How did this test come out for CC(=O)C1=C(C)N(c2ccc(C)cc2)C2(O)C=CC(=O)C3C(=O)N(c4ccccc4)C(=O)C132 (stereo not given) ?
no

Recorded test call requested for "Cc1ccc(N2C(=O)/C(=C/c3ccc(N(CCC#N)CCC#N)cc3C)N=C2c2cc([N+](=O)[O-])ccc2Cl)cc1"
no

Would you mind telling me which call this test gave "Brc1ccc(N2C[N+](c3ccc(Br)cc3)=NC(c3ccccc3)=N2)cc1.[O-][Cl+3]([O-])([O-])[O-]" ?
no

Hello, I am checking results. What call was entered for Cc1nnc(N/N=C(/C(=O)C(C#N)c2ccccc2)C(C#N)c2ccccc2)n1N (stereo not given) ?
no

What classification did "NN/C(=N\S(=O)(=O)c1cccc2nsnc12)Nc1ccc(Cl)cc1" end up with in this test?
no

Short answer needed: outcome of this test for "Cc1cccc(C(C)(C)C)c1NC(=O)/C(Cc1nc2ccc([N+](=O)[O-])cc2nc1O)=N\NC(=O)C[N+](C)(C)C" ?
no

Lab log entry: CCCCc1ccc(Nc2nc(Cl)c3ccn(C4CC(Oc5ccc(C)cc5)C(COc5ccc(C)cc5)O4)c3n2)cc1 (stereo not given) — outcome as called in the assay?
no

For this compound, state the assay outcome: "O=C1/C(=C/c2ccccc2)N=C2Sc3c([nH]cnc3=O)N12"
no

Record lookup: outcome of this test for CC(=O)O[C@H]1C(=O)[C@@]2(C)C(C(OC(=O)c3ccccc3)[C@]3(O)CC(OC(=O)C(O)C(NC(=O)c4ccc(C)cc4)c4ccccc4)C(C)=C1C3(C)C)[C@]1(OC(C)=O)CO[C@@H]1C[C@@H]2O (stereo not given in full) ?
yes

Assay outcome for CO[C@@]12[C@H](COC(N)=O)C3=C(C(=O)C(C)=C(N)C3=O)N1C[C@H]1[C@@H]2N1C (stereo not given in full) : what was it?
no

Recorded call for "CCCCCN1CCN(c2ncccn2)CC1" ?
no

How was CC(=O)O[C@H]1CCC2[C@@H]3CCC4NC(=O)C(C#N)C[C@]4(C)C3CC[C@@]21C (stereo not given in full) classified in this test?
no

###

Tested on: IGROV-1
Test method notes: NCI tumour cell line growth inhibition, 48 h
The source made the active and inactive calls. Cut-off read from the data, not from the text of the source: active = GI50 up to about 1.1 µM and inactive = higher.
Reported metric: GI50

Need GI50 of Cc1cc2c(cc1C)C(=O)C1(C2)Cc2cc3c(cc2C1=O)CCC3 (stereo not given) , thanks.
> 100 µM (inactive)

Requested field: GI50. Item: "O=C(CSCC(=O)N/N=C/c1cc(I)cc(I)c1O)N/N=C/c1cc(I)cc(I)c1O"
8.28 µM (inactive)

Reported GI50 for "C=CCc1cccc2cc(C(N)=O)c(=N)oc12" : what is it?
23.8 µM (inactive)

Returns the measured GI50 for the input molecule. Input: COc1cc(C[C@H]2c3cc(OC)c(OC)cc3CCN2C)c(Oc2cc3c(cc2OC)-c2c(OC)c(OC)cc4c2[C@H](C3)N(C)CC4)cc1OC [THALICARPINE]
10.8 µM (inactive)

Query: GI50; subject: CSC1=NC(C(N)=O)C(N)N1C (stereo not given)
> 100 µM (inactive)

Look up GI50: "Cc1ccc2c(c1)C(=O)c1nc(C)ccc1C2=O"
22.1 µM (inactive)

What does the record list as GI50 for c1ccc(C2CC(N3CCOCC3)=Nc3ccccc3N2)cc1 (stereo not given) ?
93.8 µM (inactive)

Could you share which GI50 value was measured for "NC(=O)N=C(N(Cc1ccccc1)Cc1ccccc1)N(Cc1ccccc1)Cc1ccccc1" ?
8.97 µM (inactive)

// GI50 lookup, key: "Cc1cc2c(cc1C)[n+]([O-])c(N1CCN(c3ccc([N+](=O)[O-])cc3)CC1)c(C#N)[n+]2[O-]"
25.3 µM (inactive)

Name the recorded GI50 for CCOc1ccc(NCC2CC/C(=C\C=C\c3ccccc3)C2=O)cc1 (stereo not given) .
12.5 µM (inactive)

###

Test system: OVCAR-4
Test method notes: NCI tumour cell line growth inhibition, 48 h
Calls of active or inactive are those of the source. No stated cut-off is given here; in the data, active = GI50 up to about 1.1 µM and inactive = higher.
Return exactly one item of active, inactive

I would be grateful if you could indicate the recorded call for "Cc1cc(S(=O)(=O)Nc2nc(Nc3ccccc3)n[nH]2)c(SCC(=O)O)cc1Cl" .
inactive

Which outcome was assigned to "COc1cccc2c1/c(=C/c1ccc(N(C)C)cc1)c1cc(-c3ccccc3)[n+](C)n12" in this test?
active

For "Cc1cc(N(CCC#N)CCC#N)ccc1C(/N=N/c1ccccc1)=N\NC(=O)c1cc(Cl)ccc1O" , which call appears in the assay record?
inactive

Could you check what this test reported for "COC(=O)c1ccc(Cc2cc(Cc3ccc(C(=O)OC)cc3)cc(Cc3ccc(C(=O)OC)cc3)c2)cc1" ?
inactive

Lab log entry: CCOC(=O)NC(=S)NC(C)c1ccccc1 (stereo not given) — outcome as called in the assay?
inactive

###

System: NCI-H460
Test method notes: NCI tumour cell line growth inhibition, 48 h
The source made the active and inactive calls. Cut-off read from the data, not from the text of the source: active = GI50 up to about 1.1 µM and inactive = higher.
Reported metric: GI50

What GI50 value was documented for this compound, "CN(C)CCNC(=O)Cc1ccccc1Nc1c(Cl)cccc1Cl" ?
10 µM (inactive)

Form field: reported GI50 of CCc1c(OC(C)=O)c2c(NC3OC(COC(C)=O)C(OC(C)=O)C(OC(C)=O)C3OC(C)=O)nc(SC)nc2oc1=O (stereo not given)
> 100 µM (inactive)

Return reported GI50; argument: "O=C(Nc1ccc(Cl)cc1)/C(Cc1cccc[n+]1[O-])=N\Nc1ccc([N+](=O)[O-])cc1[N+](=O)[O-]"
> 100 µM (inactive)

# get_value(readout='GI50', item= "CCN(CC)C(=S)Oc1cc2oc(=O)cc(C)c2cc1Cl" )
> 100 µM (inactive)

Requested read-out: GI50. Entry: CCOP(=O)(C=C=C1CCC2[C@@H]3CCc4cc(OC)ccc4C3CC[C@]12C)OCC (stereo not given in full)
7.82 µM (inactive)

GI50 lookup needed for "COC(=O)c1c(-c2cc(OC)c(OC)c(OC)c2)oc2ccccc2c1=O" , thanks.
76.7 µM (inactive)

Query (compound): "O=C(O)c1cc(Cl)cc(NC(=O)C(Cl)Cl)c1Cl" ; field requested: GI50
> 100 µM (inactive)

Requested read-out: GI50. Entry: "S=C1CNC(=S)CN1"
> 100 µM (inactive)

// returns reported GI50 for input COC(=O)C1CC/C(=N/c2ccc(C)cc2C)N1 (stereo not given)
> 100 µM (inactive)

Query (compound): CC(OC(C)(C)C)[C@H](NC(=O)OC(C)(C)C)C(=O)O (stereo not given in full) ; field requested: GI50
> 100 µM (inactive)
